Test: protein stability index of a GFP-peptide fusion (yeast GPS) (PSI 1-4); higher = more stable; sorted into four equal gates, so the index is relative within each strain
Settings: pdr5∆
Listing of recorded protein stability index by entry.

> print(dat)
                sequence.text          outcome.measure  value.measured
1  TIAKQVLNGQKIVVVRA [RPL16B]  protein stability index             2.9

I would be grateful if you could share the reported protein stability index for VKFYEIFNFDQLVEITE [SRB8] . 1.35

I would be grateful if you could share the reported protein stability index for AFNDSCVNLSLFDARFE [SRB8] . 3.15

I would be grateful if you could share the reported protein stability index for ATPQEAQFYLGKRIAYV [RPL33B] . 2.2

I would be grateful if you could share the reported protein stability index for IIERYIKSKADAWVSAA [PRP8] . 1.88

I would be grateful if you could share the reported protein stability index for LSNIPLLLITHHSWSQS [ARP9] . 1.6

I would be grateful if you could share the reported protein stability index for WQSGLKMYDYEEKEESN [RPN11] . 3.26

I would be grateful if you could share the reported protein stability index for QQLVDSEKRLDHFIHLR [SNF12] . 2.75

I would be grateful if you could share the reported protein stability index for NVAHRIKEDIKKQPSIL [SNF2] . 3.21

I would be grateful if you could share the reported protein stability index for TLEDKFLLLAVNKYGLR [ISW2] . 2.15

I would be grateful if you could share the reported protein stability index for SFSLTVSKEQFLKDADV [YJL039C/NUP192] . 1.45

I would be grateful if you could share the reported protein stability index for LKTVIILSSLYLLSIWV [CYT1] . 1.45

I would be grateful if you could share the reported protein stability index for LLSKLLLKHPFKAIHGS [YCS4] . 2.09

I would be grateful if you could share the reported protein stability index for EAVELPLVQADLYEQIG [RPT3] . 2.81
